Tested on: LXRa:RXRa (NR concentration 270 nM, RXRa partner concentration 90 nM)
Experiment Description: PBM binding z-score (relative to random genomic background probes); higher = stronger binding; sequences stand for … in GC…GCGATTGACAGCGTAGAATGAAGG
Lab note: anything with PBM binding z-score at or over 4 counts as rule met; the rest go in rule not met.

Please review the entries below; each comes with its answer.
# Query Sequence, Label Value
records = [
    ("TCTGCTAGGTCAGGTGGTCAGCTAACGAGCTGCC", "rule not met"),
    ("AATACAGGGTCACTAGGCCAGAGTGGGTACGAAT", "rule met"),
    ("CTATGTAGGTTAAGGGGGTCATTAAGTTTGAAAG", "rule met"),
    ("TCGAGTAGGTTACGGGGGAATTCAGGGATGAAGA", "rule not met"),
]

Data request: Evaluate CGAACTAGGTGATTGACAGGACAGTGAATAGTAA : PBM binding z-score at minimum 4?
Data returned: rule not met

Data request: Lookup TCCAGTAGGTTACGGGGGCATTCAGGGATGAAGA
Data returned: rule not met

Data request: Lookup CCATGTAGGTTAAGGGGGTCATTCAGTTTGAAAG
Data returned: rule met

Data request: Lookup CCTAGCAGGCGAGGGTCACTCAAGCATTTCGCTT
Data returned: rule not met

Data request: Lookup TCGAGTAGGTTACGGGGGTATTCAGGGATGAAGA
Data returned: rule not met
